# target.desc: Human vitronectin receptor (αvβ3) (Homo sapiens, UniProt P05106+P06756)
# Construct: Human vitronectin receptor (αvβ3) was purified from human placenta; from tissue; host or cells: human placenta
# protocol.description: Vitronectin adhesion assay (solid phase receptor assay, competition with biotinylated vitronectin)
# Assay type: binding
# measurement.setup: read-out: AvB3 IC50
Where a name gives a salt, the structure may show the parent alone.
Entries and their IC50
Only the number, expressed in nM, is required.

Example results:
1) N=C(N)Nc1cccc(C(=O)NCC(=O)NC(CC(=O)O)c2cc(F)cc(C(F)(F)F)c2)c1 (racemic) [Example 208, trifluoroacetate salt] :: 1.15
2) N=C(N)Nc1cccc(C(=O)NC2(C(=O)NC(CC(=O)O)c3cccnc3)CC2)c1 (stereo not drawn) :: 303
3) CCOC(=O)NC(=N)Nc1cccc(C(=O)NCC(=O)NC(CC(=O)O)c2cc(Cl)cc(Cl)c2)c1 (stereo not drawn) [Example 241, trifluoroacetate salt, monohydrate] :: 557
4) N=C(N)Nc1cc(NC(=O)C(F)(F)F)cc(C(=O)NCC(=O)NC(CC(=O)O)c2cc(Cl)cc(Cl)c2)c1 (stereo not drawn) [Example 292, trifluoroacetate salt] :: 3.55
5) N=C(Nc1cccc(C(=O)NCC(=O)NC(CC(=O)O)c2cc(Cl)cc(Cl)c2)c1)N1CCCCC1 (stereo not drawn) [Example 285, trifluoroacetate salt] :: 229

We next turn to a different compound, shown below.
Query :: Quick one: IC50 of N#C/N=C(/NCc1cccnc1)Nc1cccc(C(=O)NCC(=O)NC(CC(=O)O)c2ccccc2)c1 (stereo not drawn) ?
Result :: 14.3

---

# target.desc: Human vitronectin receptor (αvβ3) (Homo sapiens, UniProt P05106+P06756)
# Construct: Human vitronectin receptor (αvβ3) was purified from human placenta; from tissue; host or cells: human placenta
# protocol.description: Vitronectin adhesion assay (solid phase receptor assay, competition with biotinylated vitronectin)
# Assay type: binding
# measurement.setup: read-out: AvB3 IC50
Where a name gives a salt, the structure may show the parent alone.
Reported pIC50 values for the following molecules.
Please keep in mind that pIC50 is minus log10 of the molar concentration; only the number is needed.

Before answering, review these 3 worked examples.
1) N=C(N)Nc1cccc(C(=O)NCC(=O)NC(CC(=O)O)c2cnc3ccccc3c2)c1 (stereo not shown) :: 9.42
2) O=C(O)CC(NC(=O)CNC(=O)c1cccc(NC2=NCCCCC2)c1)c1ccccc1 (racemic) [Example 15, trifluoroacetate salt] :: 7.99
3) CC(CC(=O)O)NC(=O)CNC(=O)c1cccc(NC(=O)NCc2cc(Cl)cc(Cl)c2)c1 (stereo not shown) :: 7.51

Query :: Would you kindly share the measured pIC50 for CCOC(=O)/N=C(/NC(=O)OCC)Nc1cccc(C(=O)NCC(=O)NC(CC(=O)O)c2cc(Cl)cc(Cl)c2)c1 (stereo not shown) ?
Result :: 4.89

Query :: Given the entry N=C(N)Nc1cccc(C(=O)NCC(=O)NC(CC(=O)O)c2ccco2)c1 (racemic) [Example 55, trifluoroacetate salt] , report its measured pIC50.
Result :: 8.32

Query :: Return reported pIC50; argument: N=C(N)Nc1cccc(C(=O)NCC(=O)NC(CC(=O)O)c2cccs2)c1 (racemic) [Example 61, trifluoroacetate salt]
Result :: 8.75

Query :: Report pIC50 for CCOC(=O)CC(NC(=O)CNC(=O)c1cccc(NC(N)=S)c1)c1cccnc1 (stereo not shown) [Example 113, trifluoroacetate salt] please.
Result :: 6.56

---

Entries and their measured IC50 follow.
# target.desc: Human fibrinogen receptor (αIIbβ3) (Homo sapiens, UniProt P05106+P08514)
# Construct: Human fibrinogen receptor (αIIbβ3) was purified from outdated platelets; from tissue; host or cells: outdated human platelets
# protocol.description: Purified IIb/IIIa receptor assay (solid phase receptor assay, competition with biotinylated vitronectin)
# Format: binding
# measurement.setup: read-out: IIb/IIIa IC50
Structures can show the parent of a compound that is named as a salt.
Supply the numeric figure in nM, leaving out any unit text.

1) N=C(N)Nc1cccc(C(=O)NCC(=O)NCCC(=O)O)c1 :: 1170
2) N=C(N)Nc1cc(C(=O)NCC(=O)NC(CC(=O)O)c2cccnc2)c2ccccc2c1 (racemic) :: 9.83
3) O=C(O)CC(NC(=O)CNC(=O)c1cccc(NC2=NCCN2)c1)c1cc(C(F)(F)F)cc(C(F)(F)F)c1 (racemic) [Example 179, trifluoroacetate salt] :: 927
4) O=C(O)CC(NC(=O)CNC(=O)c1cccc(NC(=O)NCc2cccc3ccccc23)c1)c1cccnc1 (centres unmarked) [Example 131, trifluoroacetate salt] :: 1760
5) Cc1cccc(C(CC(=O)O)NC(=O)CNC(=O)c2cccc(NC(=N)N)c2)n1 (racemic) :: 802

Query :: Data request, read-out IC50, for N=C(N)Nc1cccc(C(=O)NCC(=O)NC(CC(=O)O)c2ccc3ccccc3c2)c1 (racemic) [Example 56, trifluoroacetate salt]
Result :: 65.3

Query :: Bench note: what IC50 did CCOC(=O)CC(NC(=O)CNC(=O)c1cccc(NC(=N)N)c1)c1ccc2c(c1)OCO2 (racemic) [Example 5, trifluoroacetate salt] show?
Result :: 3150

Query :: Which value of IC50 has been reported for Cc1cc(C)cc(C(CC(=O)O)NC(=O)CNC(=O)c2cccc(NC(=N)N)c2)c1 (racemic) [Example 193, trifluoroacetate salt] in the records?
Result :: 209

---

# target.desc: Human vitronectin receptor (αvβ3) (Homo sapiens, UniProt P05106+P06756)
# Construct: Human vitronectin receptor (αvβ3) was purified from human placenta; from tissue; host or cells: human placenta
# protocol.description: Vitronectin adhesion assay (solid phase receptor assay, competition with biotinylated vitronectin)
# Assay type: binding
# measurement.setup: read-out: AvB3 IC50
Where a name gives a salt, the structure may show the parent alone.
recorded.metric: IC50 (nM)
All answers are understood in nM, so give the number only.

Below are worked cases with known answers.
1) CC(C)Oc1cc(OC(C)C)cc(C(CC(=O)O)NC(=O)CNC(=O)c2cccc(NC(=N)N)c2)c1 (stereo not shown) [Example 275, trifluoroacetate salt] :: 6.98
2) Cc1cc(Br)cc(C(CC(=O)O)NC(=O)CNC(=O)c2cccc(NC(=N)N)c2)c1 (racemic) [Example 212, trifluoroacetate salt] :: 1.93
3) O=C(O)CCNC(=O)Nc1cccc(C(=O)NCC(=O)NC(CC(=O)O)c2cccnc2)c1 (stereo not shown) [Example 129, trifluoroacetate salt] :: 68.9
4) N=C(Nc1cccc(C(=O)NCC(=O)NC(CC(=O)O)c2cccnc2)c1)c1ccccc1 (racemic) :: 14.2
5) N=C(N)Nc1cccc(C(=O)NCC(=O)NC(CC(=O)O)c2cccc(Br)c2)c1 (racemic) [Example 185, trifluoroacetate salt] :: 1.47
6) C#C[C@H](CC(=O)O)NC(=O)CNC(=O)c1cccc(NC2=NCCCCC2)c1 [Example 30, trifluoroacetate salt] :: 1.75
7) C/N=C(/Nc1cccc(C(=O)NCC(=O)NC(CC(=O)O)c2ccc(F)cc2)c1)NC(C)C (racemic) [Example 298, trifluoroacetate salt] :: 252
8) Cc1ccc(C)c(C(CC(=O)O)NC(=O)CNC(=O)c2cccc(NC(=N)N)c2)c1 (racemic) [Example 181, trifluoroacetate salt] :: 132

Query :: # IC50 lookup, item N=C(N)Nc1cccc(C(=O)NCC(=O)NC(CC(=O)O)c2cc(Cl)cc(Br)c2O)c1 (racemic) [Example 233, trifluoroacetate salt, monohydrate]
Result :: 3.31

Query :: I'd like to know its IC50. The compound in question is N=C(N)Nc1cccc(C(=O)NCC(=O)NC(CC(=O)O)c2cncc(Br)c2)c1 (racemic) [Example 235, monohydrate]
Result :: 0.54

Query :: Consider the compound N=C(N)Nc1cccc(C(=O)NCC(=O)NC(CC(=O)O)CC(=O)O)c1 [Example 53, trifluoroacetate salt] and give its measured IC50.
Result :: 54.6

Query :: // lookup IC50 for COC(=O)CC(NC(=O)CNC(=O)c1cccc(NC(=N)N)c1)c1ccsc1 (racemic) [Example 57, trifluoroacetate salt]
Result :: 1340

Query :: Can you look up the measured IC50 of N=C(N)Nc1cccc(C(=O)NCC(=O)NC(CC(=O)O)c2ncc[nH]2)c1 (racemic) for me?
Result :: 3.58

---

# target.desc: Human fibrinogen receptor (αIIbβ3) (Homo sapiens, UniProt P05106+P08514)
# Construct: Human fibrinogen receptor (αIIbβ3) was purified from outdated platelets; from tissue; host or cells: outdated human platelets
# protocol.description: Purified IIb/IIIa receptor assay (solid phase receptor assay, competition with biotinylated vitronectin)
# Type: binding
# measurement.setup: read-out: IIb/IIIa IC50
Where a name gives a salt, the structure may show the parent alone.
recorded.metric: pIC50
Please treat pIC50 as minus the base-10 logarithm of the molar concentration.

1) N#C/N=C(\NCc1ccccc1)Nc1cccc(C(=O)NCC(=O)NC(CC(=O)O)c2ccccc2)c1 (stereo not shown) [Example 136] :: 4.85
2) N=C(N)Nc1cccc(C(=O)NCC(=O)NC(CC(=O)O)c2cc(Cl)cc(Cl)c2O)c1 (racemic) [Example 225, trifluoroacetate salt, monohydrate] :: 6.33
3) N=C(N)Nc1cccc(C(=O)NCC(=O)NC(CC(=O)O)c2cc(N)ccc2O)c1 (racemic) [Example 234, monohydrate] :: 6.08
4) O=C(O)CC(NC(=O)CNC(=O)c1cccc(NC(=O)NCc2ccccc2)c1)c1cccnc1 (racemic) [Example 106] :: 5.50
5) N=C(N)Nc1cccc(C(=O)NCC(=O)NC(CC(=O)O)c2cccs2)c1 (racemic) [Example 61, trifluoroacetate salt] :: 6.72
6) O=C(O)CC(NC(=O)CNC(=O)c1cccc(NC(=O)NCc2ccccc2)c1)c1ccccc1 (stereo not shown) [Example 119] :: 4.95

Query :: GET /values?readout=pIC50&item= CCN/C(=N\C)Nc1cccc(C(=O)NCC(=O)NC(CC(=O)O)c2ccc(F)cc2)c1 (racemic) [Example 297, trifluoroacetate salt]
Result :: 5.41

Query :: Would you mind telling me what pIC50 value was observed for N=C(N)Nc1cccc(C(=O)NCC(=O)NC(CC(=O)O)c2cc([N+](=O)[O-])ccc2O)c1 (racemic) [Example 226, trifluoroacetate salt] ?
Result :: 5.54

Query :: For the molecule shown here, CCOC(=O)CC(NC(=O)CNC(=O)c1cccc(NC(=N)N)c1)c1cnc2ccccc2c1 (racemic) [Example 98] , give the reported pIC50.
Result :: 6.30

Query :: Using the record for Cc1ccc(S(=O)(=O)NC(=O)Nc2cccc(C(=O)NCC(=O)NC(CC(=O)O)c3cccnc3)c2)cc1 (stereo not shown) [Example 112, trifluoroacetate salt] , report its pIC50.
Result :: 5.20

Query :: Dear colleague, I am looking for the recorded pIC50 of the following molecule: O=C(O)CC(NC(=O)CNC(=O)c1cccc(NC2=NCCCCC2)c1)c1cc(Cl)cc(Cl)c1O (racemic) [Example 232, trifluoroacetate salt, monohydrate]
Result :: 4.92
